Reference source: patent US11566007B2

targetOfAssay: NRAS Q61K (Homo sapiens (Human), UniProt P01111+P62937, Q61K)
Sequence (P01111 whole entry Q61K): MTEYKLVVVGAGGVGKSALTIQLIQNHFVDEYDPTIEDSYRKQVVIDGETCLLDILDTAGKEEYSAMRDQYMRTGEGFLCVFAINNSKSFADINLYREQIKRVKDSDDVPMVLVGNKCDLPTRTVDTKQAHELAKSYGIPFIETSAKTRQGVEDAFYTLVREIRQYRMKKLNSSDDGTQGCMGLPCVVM
Sequence (P62937 whole entry): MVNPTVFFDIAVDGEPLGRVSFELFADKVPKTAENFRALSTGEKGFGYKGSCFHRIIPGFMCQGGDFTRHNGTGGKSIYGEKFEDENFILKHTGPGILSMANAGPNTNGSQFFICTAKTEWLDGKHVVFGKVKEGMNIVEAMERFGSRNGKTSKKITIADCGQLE
assayExplanation: Ras-Raf (BRAF RBD) disruption / FRET / MOA assay, NRAS Q61K
Type: biochemical
conditions: NRAS Q61K; Ras-Raf disruption/FRET/MOA assay; read-out: IC50* NRAS Q61K FRET data
A collection of compounds and their measured IC50

C=CC(=O)N1CC[C@H](C(=O)N(C)[C@H](C(=O)N[C@H]2Cc3cc(cc(C(F)F)c3)-c3ccc4c(c3)c(c(-c3cccnc3[C@H](C)OC)n4CC(F)(F)F)CC(C)(C)COC(=O)[C@@H]3CCCN(N3)C2=O)C(C)C)C1 (atropisomer, axis not shown)	1000 to 10000 nM

Now for another entry.
The reported value for C=CC(=O)N1CC2(CCN(C(=O)N(C)[C@H](C(=O)N[C@H]3Cc4cccc(c4)-c4ccc5c(c4)c(c(-c4cccnc4[C@H](C)OC)n5CC)CC(C)(C)COC(=O)[C@@H]4CCCN(N4)C3=O)C(C)C)CC2)C1 (atropisomer, axis not shown) in terms of IC50 is 100 to 1000 nM
